# EC50 (ng/ml) n1, inhibition of Heregulin-induced ErbB2 phosphorylation in MCF7 cells annotations
# ASSAYED SYSTEM: human ErbB2, full length, on cells (human, UniProt P04626 23-1255)
# TEST DESCRIPTION: cell-based or functional assay
I only need the number, in ng/mL, no unit after it.

These recorded examples may help you get a feel for the data.
[
  {
    "BINDER": "monoclonal antibody 1.96 (antibody, V domains shown, Fully human IgG (gamma/kappa) from a XenoMouse XM3B-3 hybridoma; constant regions not tied to it) VH: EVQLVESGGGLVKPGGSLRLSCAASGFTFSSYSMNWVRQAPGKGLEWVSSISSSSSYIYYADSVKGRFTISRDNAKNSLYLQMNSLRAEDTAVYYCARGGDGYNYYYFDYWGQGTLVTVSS VL: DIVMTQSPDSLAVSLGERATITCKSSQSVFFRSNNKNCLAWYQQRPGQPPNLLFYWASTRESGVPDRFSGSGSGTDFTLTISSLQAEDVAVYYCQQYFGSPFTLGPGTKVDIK",
    "VALUE OBSERVED": 28.8
  },
  {
    "BINDER": "monoclonal antibody 1.14.1 (antibody, V domains shown, Fully human IgG (gamma/kappa) from a XenoMouse XM3B-3 hybridoma; constant regions not tied to it) VH: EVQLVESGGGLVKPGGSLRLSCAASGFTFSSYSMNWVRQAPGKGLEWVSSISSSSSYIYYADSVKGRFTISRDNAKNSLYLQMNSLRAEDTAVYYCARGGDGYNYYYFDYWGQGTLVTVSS VL: DIVMTQSPDSLAVSLGERATITCKSSQSVFFRSNNKNCLTWYQQRPGQPPNLLIYWASTRESGVPDRFSGSGSGTDFTLTINNLQAEDVAVYYCQQYFGSPFTFGPGTKVDIK",
    "VALUE OBSERVED": 33.7
  }
]

Below: the item to evaluate.
Data request: Tell me the measured EC50 (ng/ml) n1, inhibition of Heregulin-induced ErbB2 phosphorylation in MCF7 cells of monoclonal antibody 1.100.1 (antibody, V domains shown, Fully human IgG (gamma/kappa) from a XenoMouse XM3B-3 hybridoma; constant regions not tied to it; also called 1.100.2; 1.100.3) VH: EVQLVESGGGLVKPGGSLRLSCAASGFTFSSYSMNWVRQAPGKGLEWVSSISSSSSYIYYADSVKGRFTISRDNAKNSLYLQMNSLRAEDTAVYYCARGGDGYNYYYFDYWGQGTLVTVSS VL: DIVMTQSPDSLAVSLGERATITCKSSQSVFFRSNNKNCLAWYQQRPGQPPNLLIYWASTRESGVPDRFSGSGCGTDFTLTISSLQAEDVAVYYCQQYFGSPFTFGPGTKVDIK , please.
Data returned: 39.9
